Data origin, for the record: patent US10512634B2

system: PaCa2 (pancreatic); assay: CellTiter-Blue cell viability assay; assay type: cell-based; details: PaCa-2; PaCa2 cells, 72 hours of treatment; read-out: IC50 PaCa2 (cell viability)
measuredEndpoint: IC50 (nM)
Could you give me the number in nM? Just the number is fine.

Recorded results for 5 compounds are shown here.
O=C(NO)c1ccc2nc(-c3ccc(-c4cccc(Cl)c4)cc3)[nH]c2c1: 1000
CCCCCCCCCc1ccc(-c2nc3ccc(C(=O)NO)cc3[nH]2)cc1: 610
CC(C)(C)c1ccc(-c2nc3ccc(C(=O)NO)cc3[nH]2)cc1: 2100
COc1ccc2cc(-c3nc4ccc(C(=O)NO)cc4[nH]3)ccc2c1: 1200
O=C(NO)c1ccc2nc(-c3ccc(Br)cc3)[nH]c2c1: 6000

Reported IC50 ( O=C(NO)c1ccc2nc(-c3ccc(Oc4ccccc4)cc3)[nH]c2c1 ) = 1700

Reported IC50 ( O=C(NO)c1ccc2nc(-c3cccc(C(F)(F)F)c3Cl)[nH]c2c1 ) = 12000

Reported IC50 ( O=C(NO)c1ccc2nc(-c3ccc(-c4cccc(Cl)c4)s3)[nH]c2c1 ) = 1100
